Subject of test: HDAC-1 (Homo sapiens, UniProt Q13547)
Sequence (Q13547 whole entry): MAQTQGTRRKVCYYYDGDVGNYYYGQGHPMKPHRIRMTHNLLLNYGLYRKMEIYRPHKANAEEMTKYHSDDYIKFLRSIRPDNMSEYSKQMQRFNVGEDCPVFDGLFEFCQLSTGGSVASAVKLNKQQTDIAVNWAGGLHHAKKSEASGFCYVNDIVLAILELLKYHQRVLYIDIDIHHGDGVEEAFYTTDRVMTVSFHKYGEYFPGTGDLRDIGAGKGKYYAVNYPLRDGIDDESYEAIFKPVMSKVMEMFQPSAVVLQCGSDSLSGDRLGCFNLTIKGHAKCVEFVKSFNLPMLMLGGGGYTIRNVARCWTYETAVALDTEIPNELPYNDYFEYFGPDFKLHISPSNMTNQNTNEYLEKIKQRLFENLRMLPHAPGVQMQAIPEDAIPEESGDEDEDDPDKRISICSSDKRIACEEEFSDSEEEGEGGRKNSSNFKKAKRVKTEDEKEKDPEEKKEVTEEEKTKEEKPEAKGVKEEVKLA
Test summary: Enzymatic HDAC inhibition assay (fluorescence), HDAC-1
Format: biochemical
Condition notes: compound at 10 µM
Quantity name: inhibition at 10 µM (%)

Below are worked cases with known answers.
{"columns": ["Cpd smiles", "inhibition at 10 µM [%]"],
 "data": [
  ["Nc1ccccc1NC(=O)c1ccc(COc2ccccc2)cc1", 87],
  ["Nc1ccc(/C=C/c2ccc(C(=O)Nc3ccccc3N)cc2)cc1", 45],
  ["Nc1ccccc1NC(=O)c1ccc(COc2ccc(N3C(=O)c4ccccc4C3=O)cc2)cc1", 14],
  ["O=C(O)c1ccc(/C=C/c2ccccc2)cc1", 9],
  ["NC(=O)c1ccccc1OCc1ccc(C(=O)Nc2ccccc2N)cc1", 86],
  ["Nc1ccc(CCc2ccc(C(=O)Nc3ccccc3N)cc2)cc1", 92]
]}

A = Nc1ccc(OCc2ccc(C(=O)Nc3ccccc3N)cc2)cc1
B = O=C(O)c1ccc(COc2ccc(O)cc2)cc1
C = Nc1ccccc1NC(=O)c1ccc(COc2ccc(N3C(=O)c4cccc([N+](=O)[O-])c4C3=O)cc2)cc1
Ask | Endpoint returns the given molecules ordered by ascending inhibition at 10 µM. Your task in answering is to list the labels in the requested order.
Reply | C, B, A

====

Subject of test: HDAC-1 (Homo sapiens, UniProt Q13547)
Test summary: Enzymatic HDAC inhibition assay (fluorescence), HDAC-1
Type: biochemical
Condition notes: compound at 10 µM
Quantity name: inhibition at 10 µM (%)

{"columns": ["Cpd smiles", "Subject of test", "inhibition at 10 µM, %"],
 "data": [
  ["Nc1ccccc1NC(=O)c1ccc(CNc2ccccc2)cc1", "HDAC-1 (Homo sapiens, UniProt Q13547)", 96],
  ["O=C(O)c1ccc(COc2ccccc2)cc1", "HDAC-1 (Homo sapiens, UniProt Q13547)", 16],
  ["Nc1ccccc1NC(=O)c1ccc(/C=C/c2ccccc2)cc1", "HDAC-1 (Homo sapiens, UniProt Q13547)", 42]
]}

a = Nc1ccccc1NC(=O)c1ccc(COc2ccc(O)cc2)cc1
b = NC(=O)c1ccccc1OCc1ccc(C(=O)O)cc1
Ask | Lab note: check whether a or b has the lower measured inhibition at 10 µM. Write down the label attached to your selection.
Reply | b
(b: 13%, a: 96%)

====

Subject of test: HDAC-2 (Homo sapiens, UniProt Q92769)
Sequence (Q92769 whole entry): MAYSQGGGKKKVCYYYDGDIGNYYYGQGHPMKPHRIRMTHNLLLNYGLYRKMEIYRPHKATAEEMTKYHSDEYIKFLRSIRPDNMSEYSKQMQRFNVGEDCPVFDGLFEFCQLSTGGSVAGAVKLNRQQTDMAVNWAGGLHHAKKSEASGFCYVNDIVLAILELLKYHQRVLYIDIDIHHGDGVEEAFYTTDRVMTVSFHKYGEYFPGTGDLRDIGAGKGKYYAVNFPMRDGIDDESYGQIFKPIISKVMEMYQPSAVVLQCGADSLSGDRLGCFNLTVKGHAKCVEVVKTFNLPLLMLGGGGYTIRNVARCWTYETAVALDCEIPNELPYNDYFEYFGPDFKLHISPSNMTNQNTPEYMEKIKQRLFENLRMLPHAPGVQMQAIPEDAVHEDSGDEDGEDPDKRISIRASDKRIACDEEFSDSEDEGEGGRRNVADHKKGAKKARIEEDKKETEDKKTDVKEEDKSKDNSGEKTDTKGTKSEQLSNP
Quantity name: IC50 (nM)
Supply the numeric figure in nM, leaving out any unit text.

So for Nc1ccc(CCc2ccc(C(=O)Nc3ccccc3N)cc2)cc1 [Compound (5)] , the logged IC50 turned out to be 370

====

Subject of test: UniProt Q92769
Test summary: Enzymatic HDAC inhibition assay (fluorescence), HDAC-2
Format: biochemical
Condition notes: compound at 10 µM
Quantity name: inhibition at 10 µM (%)

Below are worked cases with known answers.
{"columns": ["Cpd smiles", "Unit text", "Recorded result"],
 "data": [
  ["O=C(O)c1ccc(COc2ccccc2)cc1", "%", 11],
  ["NC(=O)c1ccccc1OCc1ccc(C(=O)O)cc1", "%", 8],
  ["Nc1ccccc1NC(=O)c1ccc(COc2ccc(N3C(=O)c4cccc([N+](=O)[O-])c4C3=O)cc2)cc1", "%", 6],
  ["Nc1ccccc1NC(=O)c1ccc(CNc2ccccc2)cc1", "%", 93],
  ["Nc1ccccc1NC(=O)c1ccc(COc2ccc(N3C(=O)c4ccccc4C3=O)cc2)cc1", "%", 21]
]}

A = Nc1ccc(CCc2ccc(C(=O)Nc3ccccc3N)cc2)cc1
B = O=C(O)c1ccc(/C=C/c2ccccc2)cc1
C = Nc1ccc(OCc2ccc(C(=O)Nc3ccccc3N)cc2)cc1
D = Nc1ccc(/C=C/c2ccc(C(=O)Nc3ccccc3N)cc2)cc1
E = O=C(O)c1ccc(COc2ccc(O)cc2)cc1
Ask | Endpoint returns the given molecules ordered by ascending inhibition at 10 µM. Your task in answering is to list the labels in the requested order.
Reply | B, E, D, C, A
(B: 0%, E: 11%, D: 28%, C: 52%, A: 93%)

I = NC(=O)c1ccccc1OCc1ccc(C(=O)Nc2ccccc2N)cc1
II = Nc1ccccc1NC(=O)c1ccc(/C=C/c2ccccc2)cc1
Ask | Lab note: check whether I or II has the lower measured inhibition at 10 µM. Write down the label attached to your selection.
Reply | II

====

Subject of test: UniProtKB Q13547
Quantity name: pIC50
# pIC50 is unitless: minus log10 of the molar concentration; print number only

So for Nc1ccc(CCc2ccc(C(=O)Nc3ccccc3N)cc2)cc1 , the logged pIC50 turned out to be 6.36
